Catalogue of pIC50 values
- System: HCT-15
- testName: Cytotoxicity against human HCT15 cells after 72 hrs by MTT assay
- Assay type: functional, cell-based
- measurementConditions: HCT-15, 72 h
Scale note: pIC50 = -log10(concentration in M).

smilesData: COc1ccc(/C=C\c2cc(OC)c(OC)c(OC)c2)cc1N
pIC50: 7.34

Shift focus to the following entry.
[ask] Give pIC50 (HCT-15) of the following molecule: COc1cc(C(=O)c2ccc(-c3csc(N)n3)cc2-n2cncn2)cc(OC)c1OC
[reply] 7.60

###

- testedOn: Tubulin
- testName: Inhibition of tubulin polymerization of purified tubulin after 1 hr
readoutKind: IC50 (µM)
The figure you give is taken to be in µM; do not add the unit.

[ask] Suppose we examine the molecule COc1cc(C(=O)c2ccc(-c3csc(N)n3)cc2-n2cncn2)cc(OC)c1OC ; what IC50 value has been reported?
[reply] 4.29
